What cell viability was measured for each of the following?
System: P12-Ichikawa
assay.remarks: cell viability relative to DMSO control; higher = less cytotoxic
test.conditions: HPLM + 10% dialyzed FBS; 48 h; 46.1 µM
Entry rule: numbers only, all in %.

q: Fill in the blank: the reported cell viability of O=C(Nc1cc2cc[nH]c2cn1)c1ccccc1 is ____.
a: -0.599

q: Consider next the compound OC[C@H]1OCC(O1)[N@@]2C=CC(N)=NC2=O (some centres not stated) in the same way.
a: 115

q: Consider next the compound O=C(NC[C@H](O)CO)c1ccncc1Nc1ccc(I)cc1F in the same way.
a: 87.5

q: Consider next the compound C[C@@]12C[C@@]3(O)O[C@@H](O1)[C@]1(COC(=O)c4ccccc4)[C@H]3C[C@@]12O[C@@H]1O[C@H](CO)[C@@H](O)[C@H](O)[C@H]1O in the same way.
a: 76.7

q: Consider next the compound CN1CCN(c2ccc([N+](=O)[O-])c3no[n+]([O-])c23)CC1 in the same way.
a: 82.9

q: Consider next the compound O=C(c1ccc(Nc2nccc(-c3cc4ccccc4s3)n2)cc1)N1CCC(N2CCCC2)CC1 in the same way.
a: 3.26

q: Consider next the compound O=C(Nc1ccc(F)c(C(F)(F)F)c1)Nc1nnc(-c2ccncc2)s1 in the same way.
a: 100

---

System: SEM cells
assay.remarks: cell viability relative to DMSO control; higher = less cytotoxic
test.conditions: RPMI 5 mM glucose + 10% dialyzed FBS; 48 h; 15.4 µM
Could you mark each record 1 if its cell viability falls strictly under 90%, and 0 if it equals or exceeds it?

q: Input Cn1c(CNc2ccc(C(=N)N)cc2)nc2cc(C(=O)N(CCC(=O)O)c3ccccn3)ccc21 ; condition: cell viability strictly below 90%. Does it hold?
a: 0

q: Consider next the compound C/C=C1\C2C=C(C)CC1(N)c1ccc(=O)[nH]c1C2 (stereo unspecified) in the same way.
a: 1

q: Consider next the compound CNC[C@H](O)c1ccc(O)c(O)c1 in the same way.
a: 1

q: Consider next the compound NC(=O)c1ccc(I)c([N+](=O)[O-])c1 in the same way.
a: 0

q: Consider next the compound Cc1cnc(-c2cc(N3CCN(C(=O)CC[S+](C)(=O)[O-])CC3)ncc2Cl)c(C)c1 in the same way.
a: 0

q: Consider next the compound C=C(C)[C@H]1Cc2c(ccc3c2O[C@@H]2COc4cc(OC)c(OC)cc4[C@@H]2C3=O)O1 in the same way.
a: 1

q: Consider next the compound N=C(NCCCCCCNC(=N)NC(=N)Nc1ccc(Cl)cc1)NC(=N)Nc1ccc(Cl)cc1 in the same way.
a: 1

q: Consider next the compound O=C(Nc1ccccc1-c1cn2c(CN3CCNCC3)csc2n1)c1cnc2ccccc2n1 in the same way.
a: 1

q: Consider next the compound CN(C)C1=CC=C(C=C1)C(C2=CC=C(C=C2)N(C)C)=C/3\C=C/C(/C=C3)=[N+](C)C in the same way.
a: 1

---

Test system: NOMO1
assay.remarks: cell viability relative to DMSO control; higher = less cytotoxic
test.conditions: HPLM + 10% dialyzed FBS; 48 h; 1.71 µM
metric.name: cell viability (%)
Entry rule: numbers only, all in %.

q: Fill in the blank: the reported cell viability of CC(C)NC[C@@H](C(=O)N1CCN(c2ncnc3c2[C@H](C)C[C@H]3O)CC1)c1ccc(Cl)cc1 is ____.
a: 110

q: Consider next the compound O=C(NC[C@H](O)CO)c1ccncc1Nc1ccc(I)cc1F in the same way.
a: 56

q: Consider next the compound COc1ccc(C(C)=O)c(O)c1 in the same way.
a: 45.9

q: Consider next the compound Cc1cn(-c2cc(NC(=O)c3ccc(C)c(Nc4nccc(-c5cccnc5)n4)c3)cc(C(F)(F)F)c2)cn1 in the same way.
a: 88.8

q: Consider next the compound Nc1nc(N)c2nc(CNc3ccc(C(=O)NC(CCC(=O)O)C(=O)O)cc3)cnc2n1 (centres undefined) in the same way.
a: 57.1

q: Consider next the compound C[C@@]12C[C@@]3(O)O[C@@H](O1)[C@]1(COC(=O)c4ccccc4)[C@H]3C[C@@]12O[C@@H]1O[C@H](CO)[C@@H](O)[C@H](O)[C@H]1O in the same way.
a: 113

q: Consider next the compound Cc1cccc(Nc2nc(-c3ccncc3)cs2)c1 in the same way.
a: 145

q: Consider next the compound COC1=CC=C(C=C1)C/2=C/OC3=C(C(=CC(=C3)O)O)C2=O in the same way.
a: 122

q: Consider next the compound C[C@]12CCC(=O)C=C1CC[C@@H]1[C@@H]2CC[C@@]2(C)[C@H]1CC[C@]2(C)O in the same way.
a: 102
